Tested on: EGFRvIII-mFc
Sequence (as listed by the source): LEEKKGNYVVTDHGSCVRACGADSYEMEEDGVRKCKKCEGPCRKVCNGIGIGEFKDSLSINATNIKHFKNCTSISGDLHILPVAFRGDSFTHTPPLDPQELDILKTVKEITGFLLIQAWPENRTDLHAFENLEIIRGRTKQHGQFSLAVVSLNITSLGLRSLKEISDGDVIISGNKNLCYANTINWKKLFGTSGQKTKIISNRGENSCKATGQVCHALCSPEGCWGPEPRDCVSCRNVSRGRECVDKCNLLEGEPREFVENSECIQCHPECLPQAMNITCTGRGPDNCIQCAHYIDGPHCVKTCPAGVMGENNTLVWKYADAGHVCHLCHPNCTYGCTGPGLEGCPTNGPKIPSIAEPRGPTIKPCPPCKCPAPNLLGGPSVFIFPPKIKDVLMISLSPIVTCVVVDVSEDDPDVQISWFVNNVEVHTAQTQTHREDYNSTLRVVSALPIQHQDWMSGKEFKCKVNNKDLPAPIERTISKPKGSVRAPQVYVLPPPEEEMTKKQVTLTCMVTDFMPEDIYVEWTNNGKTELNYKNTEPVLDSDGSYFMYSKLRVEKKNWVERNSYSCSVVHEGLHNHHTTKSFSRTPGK
Assay type: binding, human
condition.parameters: 37° C., receptor-capture, EGFRvIII-mFc captured
measured.quantity: ka (M⁻¹ s⁻¹)
// return numeric value only (unit: M⁻¹ s⁻¹, not printed)

H1H1913N: human IgG1 Fc anti-EGFRvIII antibody with variable domains 1913; HCVR/LCVR SEQ ID NOs 130/138 (antibody, V domains shown, human IgG1 Fc) VH: QVQLQQWGAGLLKPSETLSLTCAVYGGSFSGDYWSWIRQSPGKGLEWIGEINHSGSTNYNPSLKSRVTISIDTSKNQFSLKLSSVTAADTAVYYCARGGGDYYYGMDVWGLGTTVTVSS VL: AIQMTQSPSSLSASVGDRVTITCRASQGIGNDLGWYQQKPGKAPNLLIYATSSLQSGVPSRFSGSGSGTDFTLTISSLQPEDFATYYCLQDYNYPWTFGQGTKVEIK | 63000

Query: ka; subject: H1H1912N: human IgG1 Fc anti-EGFRvIII antibody with variable domains 1912; HCVR/LCVR SEQ ID NOs 66/74 (antibody, V domains shown, human IgG1 Fc) VH: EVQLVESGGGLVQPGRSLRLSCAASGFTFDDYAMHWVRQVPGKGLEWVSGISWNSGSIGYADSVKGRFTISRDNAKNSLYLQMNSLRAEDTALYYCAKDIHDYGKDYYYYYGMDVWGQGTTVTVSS VL: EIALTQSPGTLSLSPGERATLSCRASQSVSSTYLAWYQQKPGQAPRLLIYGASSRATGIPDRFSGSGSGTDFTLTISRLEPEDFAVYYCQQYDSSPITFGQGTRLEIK
99000

Requested field: ka. Item: H1H1911N: human IgG1 Fc anti-EGFRvIII antibody with variable domains 1911; HCVR/LCVR SEQ ID NOs 50/58 (antibody, V domains shown, human IgG1 Fc) VH: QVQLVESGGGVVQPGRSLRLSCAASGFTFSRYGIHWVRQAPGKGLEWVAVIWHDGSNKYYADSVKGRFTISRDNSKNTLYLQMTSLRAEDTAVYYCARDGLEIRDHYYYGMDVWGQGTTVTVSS VL: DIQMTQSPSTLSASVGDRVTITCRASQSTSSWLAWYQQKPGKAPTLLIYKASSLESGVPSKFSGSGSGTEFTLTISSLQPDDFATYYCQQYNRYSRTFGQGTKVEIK
32900

Reference for the values: patent US11608380B2
